In this section, each of the binders is paired with its reported peptide exchange yield.
target: HLA-A*24 (human); assay: UV-exchange ELISA, exchange yield grade

binder	peptide exchange yield
VFGKSAYLF [… (SEQ ID NO: 256)]	50 to 75%
VYGEPRELL [… (SEQ ID NO: 242)]	50 to 75%
NYYERIHAL [… (SEQ ID NO: 146)]	50 to 75%
IYNETITDLL [… (SEQ ID NO: 105)]	50 to 75%
SFLNIEKTEILF [… (SEQ ID NO: 267)]	20 to 49%
RYGFYYVEF [… (SEQ ID NO: 167)]	50 to 75%
VFIFKGNEF [… (SEQ ID NO: 172)]	> 75%
VYPFDWQYI [… (SEQ ID NO: 128)]	> 75%
EYQARIPEF [… (SEQ ID NO: 122)]	50 to 75%
AFGQETNVPLNNF [… (SEQ ID NO: 252)]	> 75%
LYLAFPLAF [… (SEQ ID NO: 147)]	50 to 75%
IYNFVESKL [… (SEQ ID NO: 112)]	50 to 75%
KYTSYILAF [… (SEQ ID NO: 162)]	20 to 49%
AFPTFSVQL [… (SEQ ID NO: 248)]	> 75%
QYGGDLTNTF [… (SEQ ID NO: 352)]	50 to 75%
TYGKIDLGF [… (SEQ ID NO: 353)]	50 to 75%
